# Lookup of reported IC50 keyed by entry
molecular target: hepatitis C virus RNA dependant polymerase (NS5B) (Hepatitis C virus genotype 1b); assay: Inhibition of NS5B RNA dependent RNA polymerase activity; type: biochemical; conditions: Table 1; HCV NS5B polymerase
Sequence (P26663 2420-3010): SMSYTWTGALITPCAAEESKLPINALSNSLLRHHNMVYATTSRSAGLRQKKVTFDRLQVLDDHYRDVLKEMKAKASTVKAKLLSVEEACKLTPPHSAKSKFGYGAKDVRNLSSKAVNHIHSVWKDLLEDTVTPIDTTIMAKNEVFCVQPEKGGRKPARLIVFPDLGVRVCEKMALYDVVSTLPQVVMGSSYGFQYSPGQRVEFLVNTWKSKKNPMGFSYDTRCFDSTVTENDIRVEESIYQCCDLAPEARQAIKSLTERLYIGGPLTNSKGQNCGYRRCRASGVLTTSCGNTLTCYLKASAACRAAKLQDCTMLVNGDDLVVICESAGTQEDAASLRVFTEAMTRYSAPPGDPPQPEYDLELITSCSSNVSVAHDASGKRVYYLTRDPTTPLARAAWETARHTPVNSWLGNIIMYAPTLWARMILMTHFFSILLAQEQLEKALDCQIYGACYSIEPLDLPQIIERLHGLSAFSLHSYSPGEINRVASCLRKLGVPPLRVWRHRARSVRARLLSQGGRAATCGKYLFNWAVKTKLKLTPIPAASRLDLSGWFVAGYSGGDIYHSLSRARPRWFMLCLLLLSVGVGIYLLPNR

Example results:
>>> print(df.to_string())
                        structure_as_smiles  value_reported
0  O=C(Cn1c(-c2ccc(Br)cn2)c(C2CCCCC2)c2ccc(C(=O)O)cc21)N[C@@H](Cc1c[nH]c2cc(O)ccc12)C(=O)O  200 to 1000 nM
1  O=C(O)c1ccc2c(C3CCCCC3)c(-c3ccoc3)n(CC(=O)N3CCCC3)c2c1        < 200 nM
2  CCCN(CCOC)C(=O)Cn1c(-c2ccoc2)c(C2CCCCC2)c2ccc(C(=O)O)cc21  200 to 1000 nM
3  CN(C)C(=O)Cn1c(-c2cccn2C)c(C2CCCCC2)c2ccc(C(=O)O)cc21  200 to 1000 nM

// switching to the query compound
Noted for NC(=O)Cn1c(-c2ccoc2)c(C2CCCCC2)c2ccc(C(=O)O)cc21 : its IC50 reads 200 to 1000 nM

src = patent US7888363B2
